Recorded remaining at 0.5 h for the following compounds
- testMethodNotes: Stability in rat liver microsomes assessed as compound remaining at 30 mins
- Format: ADME, Microsome
- experimentalSetup: read-out: Stability
Could you give me the number in %? Just the number is fine.

Consider the reported remaining at 0.5 h for these compounds:
[[record]]
compound = "CCC(NCCCC[C@@H](Nc1cc(C)c(F)c(C)c1)C(=O)NO)c1ccc(F)cc1 (mixture of isomers)"
measuredparameter = "remaining at 0.5 h"
observed = 75

[[record]]
compound = "Cc1cc(O[C@H](CCCCNCc2ccc(F)cc2)C(=O)NO)cc(C)c1F"
measuredparameter = "remaining at 0.5 h"
observed = 3

[[record]]
compound = "Cc1cc(C[C@H](CCCCNCc2ccc(F)cc2)C(=O)NO)cc(C)c1F"
measuredparameter = "remaining at 0.5 h"
observed = 18

[[record]]
compound = "CO[C@H](C[C@H](CCCCNCc1ccc(F)cc1)C(=O)NO)c1ccc(F)cc1"
measuredparameter = "remaining at 0.5 h"
observed = 91

[[record]]
compound = "Cc1cc(N[C@H](CCCCNCc2ccc(F)cc2)C(=O)NO)cc(C)c1F"
measuredparameter = "remaining at 0.5 h"
observed = 60


Exercise: Value lookup for remaining at 0.5 h; key = CCC(NCCCC[C@@H](Oc1cc(C)c(F)c(C)c1)C(=O)NO)c1ccc(F)cc1 (mixture of isomers)
Solution: 7

Exercise: Try this compound next: CCC(NCCCC[C@@H](Cc1cc(C)c(F)c(C)c1)C(=O)NO)c1ccc(F)cc1 (mixture of isomers)
Solution: 55

Exercise: Try this compound next: CCC(NCCCC[C@@H](C[C@@H](OC)c1ccc(F)cc1)C(=O)NO)c1ccc(F)cc1 (mixture of isomers)
Solution: 75

---

Reported values: IC50 for Cytochrome P450 2D6 (Homo sapiens, UniProt P10635), one per item.
Could you give me the number in nM? Just the number is fine.

Consider the reported IC50 for these compounds:
[[record]]
compound = "Cc1cc(O[C@H](CCCCNCc2ccc(F)cc2)C(=O)NO)cc(C)c1F"
measuredparameter = "IC50"
observed = 230

[[record]]
compound = "CCC(NCCCC[C@@H](Nc1cc(C)c(F)c(C)c1)C(=O)NO)c1ccc(F)cc1 (mixture of isomers)"
measuredparameter = "IC50"
observed = 240

[[record]]
compound = "CCC(NCCCC[C@@H](Cc1cc(C)c(F)c(C)c1)C(=O)NO)c1ccc(F)cc1 (mixture of isomers)"
measuredparameter = "IC50"
observed = 80

[[record]]
compound = "CCC(NCCCC[C@@H](C[C@@H](OC)c1ccc(F)cc1)C(=O)NO)c1ccc(F)cc1 (mixture of isomers)"
measuredparameter = "IC50"
observed = 160


Exercise: Which measured IC50 belongs to Cc1cc(C[C@H](CCCCNCc2ccc(F)cc2)C(=O)NO)cc(C)c1F , tested on Cytochrome P450 2D6 (Homo sapiens, UniProt P10635)?
Solution: 20

Exercise: Try this compound next: Cc1cc(N[C@H](CCCCNCc2ccc(F)cc2)C(=O)NO)cc(C)c1F
Solution: 1350

---

Recorded Stability for the following molecules
- testMethodNotes: Stability of the compound in presence of UGT
- Type: ADME
Could you give me the number in %? Just the number is fine.

Consider the reported Stability for these molecules:
[[record]]
molecule = "CCC(NCCCC[C@@H](Cc1cc(C)c(F)c(C)c1)C(=O)NO)c1ccc(F)cc1 (mixture of isomers)"
measuredparameter = "Stability"
quantityunit = "%"
observed = 100

[[record]]
molecule = "Cc1cc(C[C@H](CCCCNCc2ccc(F)cc2)C(=O)NO)cc(C)c1F"
measuredparameter = "Stability"
quantityunit = "%"
observed = 79

[[record]]
molecule = "CCC(NCCCC[C@@H](Nc1cc(C)c(F)c(C)c1)C(=O)NO)c1ccc(F)cc1 (mixture of isomers)"
measuredparameter = "Stability"
quantityunit = "%"
observed = 74

[[record]]
molecule = "CCC(NCCCC[C@@H](C[C@@H](OC)c1ccc(F)cc1)C(=O)NO)c1ccc(F)cc1 (mixture of isomers)"
measuredparameter = "Stability"
quantityunit = "%"
observed = 100

[[record]]
molecule = "CO[C@H](C[C@H](CCCCNCc1ccc(F)cc1)C(=O)NO)c1ccc(F)cc1"
measuredparameter = "Stability"
quantityunit = "%"
observed = 99


Exercise: Value lookup for Stability; key = Cc1cc(N[C@H](CCCCNCc2ccc(F)cc2)C(=O)NO)cc(C)c1F
Solution: 38

Exercise: Try this molecule next: Cc1cc(O[C@H](CCCCNCc2ccc(F)cc2)C(=O)NO)cc(C)c1F
Solution: 76

Exercise: Try this molecule next: CCC(NCCCC[C@@H](Oc1cc(C)c(F)c(C)c1)C(=O)NO)c1ccc(F)cc1 (mixture of isomers)
Solution: 75

Hello, the source for this data is ChEMBL document CHEMBL2010758, in case you need it.
